Target: Syk kinase (Homo sapiens, UniProt P43405)
Construct: purchased
Assay: Syk kinase inhibition, Caliper LabChip off-chip mobility-shift kinase assay
Format: biochemical
Details: read-out: Syk Enzyme IC50
pIC50: −log10 of the molar value.
recorded endpoint: pIC50

Return reported pIC50; argument: `CCCCNc1nc(Nc2cc(C)ccn2)cc2cc[nH]c(=O)c12`
6.60

Return reported pIC50; argument: `O=c1c2c(NCC(F)(F)F)nc(Nc3cnccn3)cc2ccn1CCO`
7.67

Return reported pIC50; argument: `Cc1ccnc(Nc2cc3ccn(C)c(=O)c3c(NCCCO)n2)c1`
7.08

Return reported pIC50; argument: `[2H]C([2H])([2H])n1ccc2cc(Nc3cnccn3)nc(N[C@@H](C)CO)c2c1=O`
7.34

Return reported pIC50; argument: `O=c1[nH]ccc2cc(-c3cncc(NC4CC4)n3)nc(Nc3ccc(N4CCOCC4)cc3)c12`
7.08

a = [2H]C([2H])([2H])n1ccc2cc(Nc3cc(Cl)ccn3)nc(N[C@@H](C)CO)c2c1=O
b = CCN(CC)CCNC(=O)c1ccc(Nc2nc(Nc3cnccn3)cc3ccn(C)c(=O)c23)cc1
c = O=c1c2c(N[C@H]3CC[C@@H](O)CC3)nc(Nc3cc(Cl)ccn3)cc2ccn1CCO
Falling order of pIC50, please. Respond with the label ranking, as requested.
c, a, b

###

Target: Syk kinase (Homo sapiens)
Construct: purchased
Experiment: Syk kinase inhibition, Caliper LabChip off-chip mobility-shift kinase assay
Assay type: biochemical
Conditions: Caliper LabChip assay; read-out: Syk Enzyme IC50
recorded endpoint: IC50 (nM)

Return reported IC50; argument: CC(C)(C)Nc1nc(-c2cnc(N)nc2)cc2ccn(C[C@H](O)CO)c(=O)c12 [compound 934]
9

Return reported IC50; argument: O=c1c2c(N[C@H]3CC[C@@H](O)CC3)nc(Nc3cnccn3)cc2ccn1CCN1CCOCC1 [compound 994]
108

P = [2H]C([2H])([2H])n1ccc2cc(Nc3cnccn3)nc(NC[C@@H]3CCCO3)c2c1=O [compound 1048]
Q = COCCn1ccc2cc(-c3cnc(N)nc3)nc(NC(C)(C)C)c2c1=O [compound 910]
R = CCn1ccc2cc(-c3cnc(N)nc3)nc(NC(C)(C)CCO)c2c1=O [compound 1037]
Endpoint returns the given compounds ordered by ascending IC50. Respond with the label ranking, as requested.
R, Q, P

I = CC1(Nc2nc(Nc3cc(C(C)(C)O)ncn3)cc3ccn(CC(O)CO)c(=O)c23)CCC1 (stereo not shown) [compound 732]
II = CC(C)(C)Nc1nc(Nc2cnccn2)cc2ccn(CCN3CCOCC3)c(=O)c12 [compound 998]
Given the listed items, does I or II have the lesser reported IC50? Respond using the label that marks the chosen record.
I

1 = CCn1ccc2cc(Nc3nccc(O)n3)nc(NC[C@@H]3CC[C@@H](O)C3)c2c1=O [compound 959]
2 = CC(C)(C)Nc1nc(Nc2cc(CN3CC(O)C3)ccn2)cc2ccn(CCO)c(=O)c12 [Compound No. 600]
3 = Cc1nc(-c2ccnc(Nc3cc4ccn(CCO)c(=O)c4c(NC(C)(C)C)n3)c2)no1 [compound 873]
4 = CCn1ccc2cc(Nc3nccc(O)n3)nc(N[C@H]3CCC[C@@H]3O)c2c1=O [compound 956]
5 = CC(C)(C)Nc1nc(Nc2cc(C(O)C(F)(F)F)ccn2)cc2ccn(CC(N)=O)c(=O)c12 (stereo not shown) [compound 613]
Endpoint returns the given compounds ordered by ascending IC50. Respond with the label ranking, as requested.
2, 3, 1, 4, 5

###

Molecular target: Syk kinase (Homo sapiens)
Construct: purchased
Assay: Syk kinase inhibition, Caliper LabChip off-chip mobility-shift kinase assay
Format: biochemical
Settings: Caliper LabChip assay; read-out: Syk Enzyme IC50
recorded endpoint: IC50 (nM)

Return reported IC50; argument: CCn1ccc2cc(Nc3cc(C)ccn3)nc(NC3CCS(=O)(=O)C3)c2c1=O (stereo not shown)
75

Return reported IC50; argument: `CC1(Cn2ccc3cc(-c4cnc(N)nc4)nc(NC4CC(F)(F)C4)c3c2=O)COC1`
90

a = CC(C)(C)Nc1nc(Nc2cc(OCCO)ncn2)cc2ccn(C[C@H](O)CO)c(=O)c12
b = CCn1ccc2cc(Nc3cnccn3)nc(N[C@@H]3CC[C@@H](CO)C3)c2c1=O
Of a and b , which one carries the higher reported IC50? Respond using the label that marks the chosen record.
b
(b: 58 nM, a: 29 nM)

###

Target: Syk kinase (Homo sapiens, UniProt P43405)
Construct: purchased
Experiment: Syk kinase inhibition, Caliper LabChip off-chip mobility-shift kinase assay
Type: biochemical
Settings: read-out: Syk Enzyme IC50
recorded endpoint: IC50 (µM)

Return reported IC50; argument: `CCN1CCC[C@@H]1CNC(=O)c1ccc(Nc2nc(-c3cncc(OC)n3)cc3cc[nH]c(=O)c23)cc1`
0.014

Return reported IC50; argument: `O=c1c2c(NCC(F)(F)F)nc(Nc3cc(Cl)ccn3)cc2ccn1CCO`
0.271

Return reported IC50; argument: `CC(=O)c1cc2cc[nH]c(=O)c2c(Nc2ccc(N3CCO[C@H](C)C3)c(C)c2)n1`
0.807

A = N#Cc1ccc(Nc2cc3cc[nH]c(=O)c3c(Nc3ccc(N4CCOCC4)cc3)n2)nc1
B = COc1cncc(-c2cc3cc[nH]c(=O)c3c(Nc3ccc(C4CCN(C(=O)[C@@H](C)OC)CC4)c(C)c3)n2)n1
C = [2H]C([2H])([2H])n1ccc2cc(Nc3cc(C)ccn3)nc(N[C@H]3CC[C@@H](O)CC3)c2c1=O
Endpoint returns the given molecules ordered by ascending IC50. Respond with the label ranking, as requested.
C, B, A
(C: 0.02 µM, B: 0.047 µM, A: 0.301 µM)

I = CCC(C)(C)Nc1nc(Nc2cc(C)ccn2)cc2cc[nH]c(=O)c12
II = Cc1ccnc(Nc2cc3cc[nH]c(=O)c3c(N[C@@H]3CCC[C@H]3O)n2)c1 (racemic)
Of I and II , which one carries the higher reported IC50? Respond using the label that marks the chosen record.
I

###

Biological target: Syk kinase (Homo sapiens, UniProt P43405)
Construct: purchased
Assay: Syk kinase inhibition, Caliper LabChip off-chip mobility-shift kinase assay
Format: biochemical
Settings: read-out: Syk Enzyme IC50
recorded endpoint: IC50 (nM)

Past entries and their recorded results:
Return reported IC50; argument: COc1cncc(-c2cc3cc[nH]c(=O)c3c(Nc3ccc(C4CCN(CC(C)C#N)CC4)c(C)c3)n2)n1 (centres unmarked)
61

Return reported IC50; argument: `COCCn1ccc2cc(Nc3cc(C)ccn3)nc(NC(C)C)c2c1=O`
237

Return reported IC50; argument: COCC(C)Nc1nc(Nc2ccccn2)cc2cc[nH]c(=O)c12 (centres unmarked)
167

Return reported IC50; argument: Cc1ccnc(Nc2cc3cc[nH]c(=O)c3c(NC3CCOC3)n2)c1 (centres unmarked)
42

Return reported IC50; argument: `Cc1cc(Nc2nc(Nc3cc(Cl)ccn3)cc3cc[nH]c(=O)c23)ccc1C1CCN(C2CC2)CC1`
170

P = COc1cncc(-c2cc3cc[nH]c(=O)c3c(Nc3ccc(CCN4CCN5CCCC5C4)cc3)n2)n1 (centres unmarked)
Q = CCn1ccc2cc(Nc3cnccn3)nc(N[C@@H]3CCC[C@@H]3O)c2c1=O
Given the listed items, does P or Q have the lesser reported IC50? Respond using the label that marks the chosen record.
P

###

Target: Syk kinase (Homo sapiens)
Construct: purchased
Assay: Syk kinase inhibition, Caliper LabChip off-chip mobility-shift kinase assay
Format: biochemical
Conditions: read-out: Syk Enzyme IC50
recorded endpoint: IC50 (nM)

Past entries and their recorded results:
Return reported IC50; argument: CCn1ccc2cc(Nc3cnccn3)nc(N[C@@H]3CC[C@H](O)C3)c2c1=O [compound 427]
48.6

Return reported IC50; argument: O=c1[nH]ccc2cc(C3=CCNCC3)nc(Nc3ccc(N4CCOCC4)cc3)c12 [compound 88]
51

Return reported IC50; argument: Cc1ccnc(Nc2cc3cc[nH]c(=O)c3c(NC[C@H](C)O)n2)c1 [compound 501]
38

Return reported IC50; argument: Cc1ncc(-c2cc3cc[nH]c(=O)c3c(Nc3ccc([C@H]4CC[C@@H](N5CCOCC5)CC4)cc3)n2)cn1 [compound 11]
652

Return reported IC50; argument: Cc1cccnc1Nc1cc2cc[nH]c(=O)c2c(Nc2ccc(N3CCOCC3)cc2)n1 [compound 533]
382

Return reported IC50; argument: Cc1ccnc(Nc2cc3cc[nH]c(=O)c3c(N[C@H]3CCC[C@H]3O)n2)c1 (racemic) [compound 271]
26

Return reported IC50; argument: COCCNc1nc(Nc2cc(C)ccn2)cc2cc[nH]c(=O)c12 [compound 527]
120

Return reported IC50; argument: Nc1ncc(-c2cc3ccn(CC4CC4(F)F)c(=O)c3c(Nc3ccc(N4CCOCC4)cc3)n2)cn1 (stereo not drawn) [compound 4]
489

A = Cc1ccnc(Nc2cc3ccn(CCO)c(=O)c3c(Nc3ccc(S(C)(=O)=O)cc3)n2)c1 [compound 404]
B = Cc1ccnc(Nc2cc3cc[nH]c(=O)c3c(NCCO)n2)c1 [compound 561]
C = Cc1ccnc(Nc2cc3cc[nH]c(=O)c3c(NC(C)C)n2)c1 [compound 490]
D = COc1cncc(-c2cc3cc[nH]c(=O)c3c(Nc3ccc(C4CCN(CC#N)CC4)c(C)c3)n2)n1 [compound 133]
E = CCC(C(=O)OC)N1CCC(c2ccc(Nc3nc(-c4cncc(OC)n4)cc4cc[nH]c(=O)c34)cc2C)CC1 (stereo not drawn) [compound 118]
Endpoint returns the given compounds ordered by ascending IC50. Respond with the label ranking, as requested.
C, A, D, E, B
(C: 32 nM, A: 63.4 nM, D: 130 nM, E: 346 nM, B: 501 nM)
